# System: B16-F10 (murine melanoma) cells
# TEST: in vitro cytotoxicity against B16-F10 (neutral red staining, 72 hours)
# Type: cell-based
# ASSAY CONTEXT: Mus musculus; B16-F10, 72 hours; read-out: IC50
MEASURED METRIC: IC50 (ng/mL)
Unit ng/mL implied. Number only.

Please tell me: IC50 of CC(C)CCCCC(=O)N[C@@H](CO)C(=O)NC(CC(C)C)C(=O)C1(CO)CO1 (stereo partly shown) [Dihydro-BU-3862T] , system B16-F10 (murine melanoma) cells? 3.2

Please tell me: IC50 of CC(C)CCCCC(=O)N[C@@H](CO)C(=O)NC(CC(C)C)C(=O)C(CO)CO (stereo partly shown) [Tetrahydro-BU-3862T] , system B16-F10 (murine melanoma) cells? 530

Please tell me: IC50 of C=C(C)CC(NC(=O)[C@H](COC(C)=O)NC(=O)CCCCC(C)C)C(=O)C1(COC(C)=O)CO1 (stereo partly shown) [Diacetyl-BU-3862T] , system B16-F10 (murine melanoma) cells? 3

Please tell me: IC50 of C=C(C)CC(NC(=O)[C@H](CO)NC(=O)CCCCC(C)C)C(=O)C1(CO)CO1 (stereo partly shown) [BU-3862T] , system B16-F10 (murine melanoma) cells? 1.7
